A short record of Ki observed with Kappa-type opioid receptor (Homo sapiens) follows.
Sequence (P41145 whole entry): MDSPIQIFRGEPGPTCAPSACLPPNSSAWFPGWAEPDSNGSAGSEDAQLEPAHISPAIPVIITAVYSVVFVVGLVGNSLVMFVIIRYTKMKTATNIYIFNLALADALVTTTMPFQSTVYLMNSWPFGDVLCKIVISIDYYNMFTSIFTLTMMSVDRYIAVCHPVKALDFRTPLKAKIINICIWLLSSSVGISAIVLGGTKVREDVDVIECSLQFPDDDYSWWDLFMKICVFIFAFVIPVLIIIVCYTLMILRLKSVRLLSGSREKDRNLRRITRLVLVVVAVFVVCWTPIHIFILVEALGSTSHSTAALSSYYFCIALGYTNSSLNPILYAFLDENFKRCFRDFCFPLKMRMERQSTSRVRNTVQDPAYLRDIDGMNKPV
I'd appreciate it if you wrote the number followed by its unit.

>  <record.smiles>
C[C@H](Nc1ncnc2c1c(C(F)(F)F)cn2[C@@H]1O[C@H](CO)[C@@H](O)[C@H]1O)c1ccccc1

>  <Ki>
1900 nM

$$$$

Below: the item to evaluate.
Q: Which Ki value belongs to OC[C@H]1O[C@@H](n2cc(C(F)(F)F)c3c(NCc4ccccc4)ncnc32)[C@H](O)[C@@H]1O ?
A: 1800 nM

* * *

A short record of Ki observed with 5-hydroxytryptamine receptor 2B (Homo sapiens, UniProt P41595) follows.
Sequence (P41595 whole entry): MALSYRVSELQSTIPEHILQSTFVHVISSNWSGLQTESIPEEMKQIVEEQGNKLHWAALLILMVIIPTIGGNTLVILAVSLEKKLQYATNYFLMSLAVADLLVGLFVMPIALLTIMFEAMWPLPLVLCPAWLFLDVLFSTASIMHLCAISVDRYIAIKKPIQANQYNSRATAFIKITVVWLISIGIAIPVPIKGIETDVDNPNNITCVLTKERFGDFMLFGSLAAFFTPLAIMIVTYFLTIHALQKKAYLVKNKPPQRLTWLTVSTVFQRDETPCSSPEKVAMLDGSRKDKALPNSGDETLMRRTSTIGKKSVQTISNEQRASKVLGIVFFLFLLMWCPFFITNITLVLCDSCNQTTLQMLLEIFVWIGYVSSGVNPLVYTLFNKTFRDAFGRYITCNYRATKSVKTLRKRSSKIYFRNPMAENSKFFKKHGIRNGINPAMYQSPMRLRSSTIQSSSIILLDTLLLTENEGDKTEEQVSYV
Lab book: enter the figure in nM, no units written.

>  <record.smiles>
OC[C@H]1O[C@@H](n2cc(C(F)(F)F)c3c(NCc4ccccc4Cl)ncnc32)[C@H](O)[C@@H]1O

>  <readout.kind>
Ki

>  <endpoint.value>
550

$$$$

Below: the item to evaluate.
Q: Which Ki value belongs to OC[C@H]1O[C@@H](n2cc(C(F)(F)F)c3c(NCc4ccc(Cl)cc4)ncnc32)[C@H](O)[C@@H]1O ?
A: 830

These entries and their values trace back to ChEMBL document CHEMBL5357012.
